Biological target: glucan synthase (GS) (Candida albicans, UniProt O13428)
Construct: Extraction of GS activity from membranes was performed at a protein concentration of 5 mg/mL in extraction buffer; endogenous in cells; host or cells: Candida albicans MY1055 (membrane fraction, detergent extraction, product entrapment)
Sequence (O13428 1-1897): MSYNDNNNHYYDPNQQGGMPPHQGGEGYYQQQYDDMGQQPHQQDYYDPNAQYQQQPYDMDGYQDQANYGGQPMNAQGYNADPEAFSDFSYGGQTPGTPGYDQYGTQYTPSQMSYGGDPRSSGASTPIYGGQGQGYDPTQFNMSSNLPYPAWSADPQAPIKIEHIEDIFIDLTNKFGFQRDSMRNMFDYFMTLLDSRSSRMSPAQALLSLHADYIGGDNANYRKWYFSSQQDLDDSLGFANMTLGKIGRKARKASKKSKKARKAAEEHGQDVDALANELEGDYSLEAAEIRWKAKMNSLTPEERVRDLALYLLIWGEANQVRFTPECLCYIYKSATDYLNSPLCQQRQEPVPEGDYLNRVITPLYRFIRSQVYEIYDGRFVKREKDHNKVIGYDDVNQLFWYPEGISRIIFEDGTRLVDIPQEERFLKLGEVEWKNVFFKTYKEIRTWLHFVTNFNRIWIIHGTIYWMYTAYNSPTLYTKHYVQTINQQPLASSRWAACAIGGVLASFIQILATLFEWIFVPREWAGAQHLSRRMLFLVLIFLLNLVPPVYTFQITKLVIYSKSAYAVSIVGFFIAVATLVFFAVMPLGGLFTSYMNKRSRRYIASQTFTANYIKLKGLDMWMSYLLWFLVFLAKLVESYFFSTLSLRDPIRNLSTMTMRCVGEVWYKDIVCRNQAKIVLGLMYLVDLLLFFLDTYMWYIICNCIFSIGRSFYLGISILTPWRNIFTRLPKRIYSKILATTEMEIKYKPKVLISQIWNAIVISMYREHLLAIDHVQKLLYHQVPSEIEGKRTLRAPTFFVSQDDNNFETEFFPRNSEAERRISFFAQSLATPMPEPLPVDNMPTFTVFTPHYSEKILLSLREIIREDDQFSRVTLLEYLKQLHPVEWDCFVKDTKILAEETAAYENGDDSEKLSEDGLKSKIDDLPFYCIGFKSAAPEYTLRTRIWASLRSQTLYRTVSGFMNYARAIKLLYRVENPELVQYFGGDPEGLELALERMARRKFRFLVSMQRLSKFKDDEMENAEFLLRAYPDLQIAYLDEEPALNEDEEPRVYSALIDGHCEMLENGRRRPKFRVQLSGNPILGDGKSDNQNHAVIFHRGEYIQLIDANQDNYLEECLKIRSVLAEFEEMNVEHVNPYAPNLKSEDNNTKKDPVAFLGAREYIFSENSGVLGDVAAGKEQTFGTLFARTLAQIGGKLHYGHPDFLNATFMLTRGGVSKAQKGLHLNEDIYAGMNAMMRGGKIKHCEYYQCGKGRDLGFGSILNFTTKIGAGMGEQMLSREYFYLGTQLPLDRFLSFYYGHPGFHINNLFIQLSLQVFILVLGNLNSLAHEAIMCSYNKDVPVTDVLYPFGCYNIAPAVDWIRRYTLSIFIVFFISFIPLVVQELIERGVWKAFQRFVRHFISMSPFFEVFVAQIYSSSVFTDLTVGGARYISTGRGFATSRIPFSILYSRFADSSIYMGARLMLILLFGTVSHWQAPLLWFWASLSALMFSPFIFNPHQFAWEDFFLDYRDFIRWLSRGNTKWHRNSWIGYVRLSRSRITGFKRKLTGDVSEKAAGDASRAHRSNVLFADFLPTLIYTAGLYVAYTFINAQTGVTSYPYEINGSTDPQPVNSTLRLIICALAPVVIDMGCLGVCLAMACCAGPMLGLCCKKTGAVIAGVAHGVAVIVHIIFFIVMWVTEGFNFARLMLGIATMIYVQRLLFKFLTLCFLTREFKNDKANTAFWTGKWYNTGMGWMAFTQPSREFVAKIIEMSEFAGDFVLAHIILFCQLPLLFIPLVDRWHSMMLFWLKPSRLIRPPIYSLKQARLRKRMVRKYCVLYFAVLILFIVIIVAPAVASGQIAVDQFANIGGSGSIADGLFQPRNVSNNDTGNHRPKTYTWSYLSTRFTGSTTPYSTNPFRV
Sequence (O42825 1-195 partner limits assumed): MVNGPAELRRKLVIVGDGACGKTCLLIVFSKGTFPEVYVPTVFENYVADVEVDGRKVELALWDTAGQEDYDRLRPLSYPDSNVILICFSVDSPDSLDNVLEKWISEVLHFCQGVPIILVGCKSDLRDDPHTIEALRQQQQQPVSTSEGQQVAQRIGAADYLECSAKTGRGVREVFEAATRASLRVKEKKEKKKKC
Assay: Glucan synthase inhibition (polymerization assay, 96-well)
Assay type: biochemical
Details: glucan synthase prepared from Candida albicans MY1055; 60 min incubation at 22° C.; read-out: Candida Albicans GS IC50 (ng/mL) (converted)
Quantity: IC50 (nM)
Respond with the bare value in nM.

Illustrative cases are given below, each with its answer.
1. CCC(N)(CC)CO[C@H]1[C@H](n2nnc(N)n2)C[C@@]23COC[C@]1(C)[C@@H]2CC[C@H]1C3=CC[C@@]2(C)[C@H](C(=O)O)[C@@](C)([C@H](C)C(C)C)CC[C@]12C    7.63
2. CN[C@](C)(CO[C@H]1[C@H](n2nnc(N)n2)C[C@@]23COC[C@]1(C)[C@@H]2CC[C@H]1C3=CC[C@@]2(C)[C@H](C(=O)O)[C@@](C)([C@H](C)C(C)C)CC[C@]12C)C(C)(C)C    8.78

For CC(C)[C@@H](C)[C@@]1(C)CC[C@]2(C)[C@H]3CC[C@@H]4[C@@]5(COC[C@@]4(C)[C@@H](OCCNCCCN(C)C)[C@H](n4nnc(N)n4)C5)C3=CC[C@@]2(C)[C@@H]1C(=O)O , what is its reported IC50? 8.77

For CNC1(CO[C@H]2[C@H](n3nnc(N)n3)C[C@@]34COC[C@]2(C)[C@@H]3CC[C@H]2C4=CC[C@@]3(C)[C@H](C(=O)O)[C@@](C)([C@H](C)C(C)C)CC[C@]23C)CCOCC1 , what is its reported IC50? 5.86
